Some compounds, each annotated with its measured GI50.
System: SNB-75
Experiment: SRB 48 h growth assay, CNS SNB-75
Format: cell-based, human
Conditions: Homo sapiens, SNB-75, CNS, read-out: Growth Inhibition GI50
Please give a number only; it is taken to be in nM.

These solved cases illustrate the format of a correct answer.
{"columns": ["Molecular String", "System Tested", "Numeric Value"],
 "data": [
  ["C#Cc1ccc(-n2c(/C=C/c3ccc4ccccc4n3)nc3ncccc3c2=O)cc1", "SNB-75", 330],
  ["C#Cc1ccc(-n2c(/C=C/c3cc(OC)c(OC)c(OC)c3)nc3ncccc3c2=O)cc1", "SNB-75", 3880],
  ["C#Cc1ccc(-n2c(/C=C/c3ccc(O)cc3)nc3ncccc3c2=O)cc1", "SNB-75", 940]
]}

Input: Which measured GI50 value corresponds to C#Cc1ccc(-n2c(/C=C/c3ccc4ccccc4c3)nc3ncccc3c2=O)cc1 ?
Output: 3690

Input: Which measured GI50 value corresponds to C#Cc1ccc(-n2c(/C=C/c3ccc(C(F)(F)F)cc3)nc3ncccc3c2=O)cc1 ?
Output: 1810

Input: Which measured GI50 value corresponds to C#Cc1ccc(-n2c(/C=C/c3ccc(Cl)c(F)c3)nc3ncccc3c2=O)cc1 ?
Output: 340
